molecular target: Alpha glucosidase (Homo sapiens, UniProt O43451+P10253+P14410+Q2M2H8); assay: Inhibition of alpha-glucosidase (unknown origin) using PNP glucoside as substrate preincubated for 30 mins followed by substrate addition further incubated for 1 min by spectrophotometry; type: protein assay
reported_property: IC50 (µM)
Reply with just the number (in µM).

• COc1ccc(NC(=O)Cn2cc(COc3cc(OC(C)=O)c4c(=O)c5cc(OC)ccc5oc4c3)nn2)c(OC)c1 = 42.6

*Q* Look up and state reported IC50 for COc1ccc(NC(=O)Cn2cc(COc3cc(O)c4c(=O)c5cc(Br)ccc5oc4c3)nn2)cc1OC
*A* 29.84

*Q* Look up and state reported IC50 for O=C(Cn1cc(COc2cc(O)c3c(=O)c4cc(O)ccc4oc3c2)nn1)Nc1ccc(O)cc1O
*A* 15.62
